- assay_procedure: Pharmacokinetic studies in male Sprague-Dawley rats
- Format: in vivo
- condition_label: male, Sprague-Dawley, plasma; rat, PO (3 mg/kg); read-out: t½
Mark rule met for reported half-life of 3 h or greater; mark rule not met for anything smaller.

>>> df
                              record_smiles  class_assignment
0  COc1cc2nccc(Oc3ccc(NC(=O)C4(C(=O)Nc5ccc(F)cc5)CC4)cc3)c2cc1-c1ncco1          rule met
1  COc1cc2nccc(Oc3ccc(NC(=O)C4(C(=O)Nc5ccc(F)cc5)CC4)cc3)c2cc1C(N)=O          rule met
2  CNC(=O)c1cc2c(Oc3ccc(NC(=O)C4(C(=O)Nc5ccc(F)cc5)CC4)cc3)ccnc2cc1OC          rule met
3  COc1cc2nccc(Oc3ccc(NC(=O)C4(C(=O)Nc5ccc(F)cc5)CC4)cc3)c2cc1S(N)(=O)=O      rule not met
4  CCNC(=O)c1cc2c(Oc3ccc(NC(=O)C4(C(=O)Nc5ccc(F)cc5)CC4)cc3)ccnc2cc1OC      rule not met

====

- study_target: Met (Homo sapiens (Human))
- assay_procedure: Met autophosphorylation ELISA in PC-3 cells
- condition_label: cellular, HGF stimulated, read-out: c-Met IC50
Listed here are compounds together with their documented IC50.
experimental_readout: IC50

>>> print(df.to_string())
                                   compound  experimental_readout    meas_value
0  CC(O)COc1cc2nccc(Oc3ccc(NC(=O)C4(C(=O)Nc5ccc(F)cc5)CC4)cc3)c2cc1C(N)=O (stereo not shown)                  IC50  10 to 100 nM
1  COc1cc2nccc(Oc3ccc(NC(=O)C4(C(=O)Nc5ccc(F)cc5)CC4)cc3)c2cc1C(=O)NOCCO                  IC50  10 to 100 nM
2  COc1cc2nccc(Oc3ccc(NC(=O)C4(C(=O)Nc5ccc(F)cc5)CC4)cc3)c2cc1C(=O)NC1CN(C)C1                  IC50       ≤ 10 nM
3  CNC(=O)c1cc2nccc(Oc3ccc(NC(=O)C4(C(=O)Nc5ccc(F)cc5)CC4)cc3)c2cc1C                  IC50  10 to 100 nM
4  COC(=O)c1cc2nccc(Oc3ccc(NC(=O)C4(C(=O)Nc5ccc(F)cc5)CC4)cc3)c2cc1OC                  IC50  10 to 100 nM
5  COc1cc2nccc(Oc3ccc(NC(=O)C4(C(=O)Nc5ccc(F)cc5)CC4)cc3)c2cc1C(=O)NC[C@H]1CCCN1                  IC50  10 to 100 nM
6  CNC(=O)c1cc2nccc(Oc3cc(Cl)c(NC(=O)C4(C(=O)Nc5ccc(F)cc5)CC4)cc3F)c2cc1C                  IC50  10 to 100 nM

====

- study_target: Met (Homo sapiens (Human), UniProt P08581)
- Sequence (P08581 25-1390): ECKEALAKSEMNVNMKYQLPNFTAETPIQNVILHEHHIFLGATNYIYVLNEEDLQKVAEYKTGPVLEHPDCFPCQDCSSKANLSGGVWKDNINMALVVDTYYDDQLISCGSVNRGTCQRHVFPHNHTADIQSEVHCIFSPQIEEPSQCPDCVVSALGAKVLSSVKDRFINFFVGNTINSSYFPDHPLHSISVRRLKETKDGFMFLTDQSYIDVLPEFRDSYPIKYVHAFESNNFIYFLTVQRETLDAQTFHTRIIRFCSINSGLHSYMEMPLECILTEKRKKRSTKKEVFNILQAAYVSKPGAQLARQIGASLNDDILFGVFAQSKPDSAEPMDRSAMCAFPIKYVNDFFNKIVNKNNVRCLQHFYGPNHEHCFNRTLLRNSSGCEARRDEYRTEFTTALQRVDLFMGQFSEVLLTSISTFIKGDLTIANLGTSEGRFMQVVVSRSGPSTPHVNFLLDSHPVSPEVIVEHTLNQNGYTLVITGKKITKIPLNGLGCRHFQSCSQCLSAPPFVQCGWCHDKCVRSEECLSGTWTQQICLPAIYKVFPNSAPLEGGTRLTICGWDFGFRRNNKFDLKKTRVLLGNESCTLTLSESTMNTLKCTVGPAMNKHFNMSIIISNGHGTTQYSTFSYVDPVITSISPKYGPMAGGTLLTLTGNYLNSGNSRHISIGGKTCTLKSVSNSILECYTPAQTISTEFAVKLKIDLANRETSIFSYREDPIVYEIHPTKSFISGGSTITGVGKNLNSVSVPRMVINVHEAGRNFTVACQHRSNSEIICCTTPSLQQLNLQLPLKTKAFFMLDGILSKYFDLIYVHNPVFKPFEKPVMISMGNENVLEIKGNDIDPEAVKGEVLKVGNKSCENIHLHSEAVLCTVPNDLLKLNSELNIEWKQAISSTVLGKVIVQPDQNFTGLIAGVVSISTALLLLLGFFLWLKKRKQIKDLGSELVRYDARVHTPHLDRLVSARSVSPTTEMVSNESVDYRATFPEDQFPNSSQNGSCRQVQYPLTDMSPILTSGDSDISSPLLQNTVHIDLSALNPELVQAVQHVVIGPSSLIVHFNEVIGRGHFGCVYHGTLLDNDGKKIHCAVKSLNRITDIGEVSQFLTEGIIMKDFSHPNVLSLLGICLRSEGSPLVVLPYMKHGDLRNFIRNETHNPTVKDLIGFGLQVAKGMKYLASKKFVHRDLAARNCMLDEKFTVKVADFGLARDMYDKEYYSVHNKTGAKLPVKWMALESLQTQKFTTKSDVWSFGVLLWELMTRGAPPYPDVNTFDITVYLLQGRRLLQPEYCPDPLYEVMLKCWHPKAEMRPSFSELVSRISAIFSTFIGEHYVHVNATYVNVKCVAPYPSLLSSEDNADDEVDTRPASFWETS
- assay_procedure: Met autophosphorylation ELISA in PC-3 cells
- condition_label: cellular, HGF stimulated, read-out: c-Met IC50
experimental_readout: IC50

                              record_smiles     meas_value
0  NC(=O)c1cc2c(Oc3ccc(NC(=O)C4(C(=O)Nc5ccc(F)cc5)CC4)cc3)ccnc2cc1NCCCN1CCOCC1   10 to 100 nM
1  COc1cc2nccc(Oc3ccc(NC(=O)C4(C(=O)Nc5ccc(F)cc5)CC4)cc3)c2cc1C(=O)O       > 300 nM
2  CO/N=C(\C)c1cc2c(Oc3ccc(NC(=O)C4(C(=O)Nc5ccc(F)cc5)CC4)cc3)ccnc2cc1OC  100 to 300 nM
3  O=C(Nc1ccc(F)cc1)C1(C(=O)Nc2ccc(Oc3ccnc4cc(OCCO)c(-c5ncco5)cc34)cc2)CC1        ≤ 10 nM

====

- study_target: Human Met (residues R974-S1390 with A1209G and V1290L) (Homo sapiens)
- assay_procedure: Human Met kinase assay (33P radiometric, KinaseProfiler)
- condition_label: 10 μM ATP, read-out: c-Met IC50
experimental_readout: IC50

In [3]: df
Out[3]:
                                   compound  experimental_readout    meas_value
0  COC(=O)c1cc2c(Oc3ccc(NC(=O)C4(C(=O)Nc5ccc(F)cc5)CC4)cc3Cl)ccnc2cc1OC [Compound 128]                  IC50       ≤ 10 nM
1  COc1cc2nccc(Oc3ccc(NC(=O)C4(C(=O)Nc5ccc(F)cc5)CC4)cc3)c2cc1-c1cn[nH]c1 [Compound 186]                  IC50       ≤ 10 nM
2  NC(=O)c1cc2c(Oc3ccc(NC(=O)C4(C(=O)Nc5ccc(F)cc5)CC4)cc3)ccnc2cc1Cl [Compound 68]                  IC50  10 to 100 nM
3  COc1cc2nccc(Oc3ccc(NC(=O)C4(C(=O)Nc5ccc(F)cc5)CC4)cc3)c2cc1-c1cccnc1 [Compound 201]                  IC50       ≤ 10 nM

====

- study_target: KDR (Homo sapiens (Human), UniProt P35968)
- Sequence (P35968 20-1356): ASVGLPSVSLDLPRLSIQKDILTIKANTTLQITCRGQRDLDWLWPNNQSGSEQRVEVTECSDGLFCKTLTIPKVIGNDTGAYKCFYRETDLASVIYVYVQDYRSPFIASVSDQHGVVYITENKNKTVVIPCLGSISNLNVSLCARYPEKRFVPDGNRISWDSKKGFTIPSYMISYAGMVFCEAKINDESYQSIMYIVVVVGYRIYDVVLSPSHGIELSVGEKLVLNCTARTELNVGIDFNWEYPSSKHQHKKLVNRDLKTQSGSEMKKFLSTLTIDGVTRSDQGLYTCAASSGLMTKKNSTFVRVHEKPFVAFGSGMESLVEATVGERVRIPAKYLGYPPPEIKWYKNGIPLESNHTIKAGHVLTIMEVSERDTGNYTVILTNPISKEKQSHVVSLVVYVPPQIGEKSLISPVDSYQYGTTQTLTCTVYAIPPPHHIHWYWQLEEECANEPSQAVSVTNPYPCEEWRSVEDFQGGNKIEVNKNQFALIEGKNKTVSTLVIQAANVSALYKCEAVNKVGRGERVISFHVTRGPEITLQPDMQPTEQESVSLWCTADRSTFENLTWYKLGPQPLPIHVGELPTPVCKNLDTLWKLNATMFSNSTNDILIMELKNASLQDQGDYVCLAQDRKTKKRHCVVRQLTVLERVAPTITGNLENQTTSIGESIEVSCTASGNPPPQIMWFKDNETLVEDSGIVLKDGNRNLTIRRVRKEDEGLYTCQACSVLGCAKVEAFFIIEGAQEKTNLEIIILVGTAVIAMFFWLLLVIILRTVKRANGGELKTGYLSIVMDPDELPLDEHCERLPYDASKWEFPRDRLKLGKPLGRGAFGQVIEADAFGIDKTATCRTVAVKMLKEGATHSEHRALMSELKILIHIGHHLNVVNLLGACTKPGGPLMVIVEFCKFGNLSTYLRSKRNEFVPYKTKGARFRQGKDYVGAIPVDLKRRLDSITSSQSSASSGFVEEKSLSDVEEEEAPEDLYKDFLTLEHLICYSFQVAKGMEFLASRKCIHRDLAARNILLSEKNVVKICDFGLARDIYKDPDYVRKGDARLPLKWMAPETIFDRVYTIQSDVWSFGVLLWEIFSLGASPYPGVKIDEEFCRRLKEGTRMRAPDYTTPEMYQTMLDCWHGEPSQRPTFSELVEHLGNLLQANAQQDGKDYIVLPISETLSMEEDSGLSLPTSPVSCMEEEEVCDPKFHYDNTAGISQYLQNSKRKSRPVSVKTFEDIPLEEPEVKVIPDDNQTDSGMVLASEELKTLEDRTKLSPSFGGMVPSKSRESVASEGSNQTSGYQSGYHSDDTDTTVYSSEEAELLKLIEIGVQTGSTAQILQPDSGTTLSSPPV
- assay_procedure: KDR autophosphorylation ELISA in HUVEC cells
- condition_label: cellular, VEGF165 stimulated
- Procedure: Human umbilical vein endothelial cells or HUVEC (Lonza #C2519A) were seeded at 2×10^4 cells/well onto 96-well plates (Corning #3904), in EGM-2 growth medium (Lonza #CC-3162) containing 1% Penicillin Streptomycin (Thermo Fisher #15140-122). […] IC50 values were calculated by nonlinear regression analysis using a 4-parameter logistic curve fit in ActivityBase XE (IDBS).
pIC50: −log10 of the molar value.
experimental_readout: pIC50

>>> print(df.to_string())
                              record_smiles    meas_value
0  O=C(Nc1ccc(F)cc1)C1(C(=O)Nc2ccc(Oc3ccnc4ccc(-c5ccn[nH]5)cc34)cc2)CC1  7.00 to 8.00
1  CC(=O)c1ccc2c(Oc3ccc(NC(=O)C4(C(=O)Nc5ccc(F)cc5)CC4)cc3)ccnc2c1        < 6.52
2  CNC(=O)Nc1cc2c(Oc3ccc(NC(=O)C4(C(=O)Nc5ccc(F)cc5)CC4)cc3)ccnc2cc1OC        ≥ 8.00
3  O=C(NOCCO)c1ccc2c(Oc3ccc(NC(=O)C4(C(=O)Nc5ccc(F)cc5)CC4)cc3)ccnc2c1  6.52 to 7.00
4  CCNS(=O)(=O)c1cc2c(Oc3ccc(NC(=O)C4(C(=O)Nc5ccc(F)cc5)CC4)cc3)ccnc2cc1OC  7.00 to 8.00
5  CNC(=O)c1cc2c(Oc3ccc(NC(=O)C4(C(=O)Nc5ccc(F)cc5)CC4)cc3)ccnc2cc1N        < 6.52
6  COc1cc2nccc(Oc3ccc(NC(=O)C4(C(=O)Nc5ccc(F)cc5)CC4)cc3Cl)c2cc1C(=O)O        < 6.52

====

Listed here are molecules together with their documented pIC50.
- study_target: KDR (Homo sapiens (Human), UniProt P35968)
- assay_procedure: KDR autophosphorylation ELISA in HUVEC cells
- condition_label: cellular, VEGF165 stimulated
pIC50: −log10 of the molar value. Structures can show the parent of a compound that is named as a salt.
experimental_readout: pIC50

                                   molecule  experimental_readout    meas_value
0  CCc1noc(-c2cc3c(Oc4ccc(NC(=O)C5(C(=O)Nc6ccc(F)cc6)CC5)cc4)ccnc3cc2OC)n1 [Compound 283, Hydrochloride]                 pIC50  7.00 to 8.00
1  COc1cc2nccc(Oc3ccc(NC(=O)C4(C(=O)Nc5ccc(F)cc5)CC4)cc3)c2cc1C1CC1                 pIC50  7.00 to 8.00
2  COc1cc2nccc(Oc3ccc(NC(=O)C4(C(=O)Nc5ccc(F)cc5)CC4)cc3)c2cc1-c1ncco1                 pIC50        ≥ 8.00
3  COc1cc2nccc(Oc3ccc(NC(=O)C4(C(=O)Nc5ccc(F)cc5)CC4)cc3F)c2cc1C(N)=O                 pIC50        ≥ 8.00
4  CNC(=O)c1cc2c(Oc3ccc(NC(=O)C4(C(=O)Nc5ccc(F)cc5C)CC4)cc3F)ccnc2cc1OC                 pIC50  7.00 to 8.00
5  COc1cc2nccc(Oc3ccc(NC(=O)C4(C(=O)Nc5ccc(F)cc5)CC4)cc3)c2cc1C(C)=O                 pIC50        ≥ 8.00
6  CNC(=O)c1ccc2c(Oc3ccc(NC(=O)C4(C(=O)Nc5ccc(F)cc5)CC4)cc3)ccnc2c1                 pIC50        ≥ 8.00

All values here come from patent US11542259B2.
